experiment: Clearance in human hepatocytes at 1 uM measured up to 250 mins by UHPLC-HRMS analysis; type: ADME, cell-based, Hepatocyte

compound_string	CLH at 1 µM, mL/min/kg
Cc1nc2c(-c3nnc[nH]3)cc(-c3ccnc(C#N)c3)cc2n1-c1ccnc2c(F)ccc(F)c12	3.17

====

compounds and their reported pEC50
biological target: Phosphatidylinositol 4,5-bisphosphate 3-kinase catalytic subunit beta isoform (Homo sapiens, UniProt P42338); assay: Inhibition of PI3Kbeta in PTEN-deficient human ZR-75-1 cells assessed as reduction in AKT phosphorylation at Ser473 residue after 2 hrs by mesoscale assay; assay type: cell-based
Sequence (P42338 whole entry, canonical isoform): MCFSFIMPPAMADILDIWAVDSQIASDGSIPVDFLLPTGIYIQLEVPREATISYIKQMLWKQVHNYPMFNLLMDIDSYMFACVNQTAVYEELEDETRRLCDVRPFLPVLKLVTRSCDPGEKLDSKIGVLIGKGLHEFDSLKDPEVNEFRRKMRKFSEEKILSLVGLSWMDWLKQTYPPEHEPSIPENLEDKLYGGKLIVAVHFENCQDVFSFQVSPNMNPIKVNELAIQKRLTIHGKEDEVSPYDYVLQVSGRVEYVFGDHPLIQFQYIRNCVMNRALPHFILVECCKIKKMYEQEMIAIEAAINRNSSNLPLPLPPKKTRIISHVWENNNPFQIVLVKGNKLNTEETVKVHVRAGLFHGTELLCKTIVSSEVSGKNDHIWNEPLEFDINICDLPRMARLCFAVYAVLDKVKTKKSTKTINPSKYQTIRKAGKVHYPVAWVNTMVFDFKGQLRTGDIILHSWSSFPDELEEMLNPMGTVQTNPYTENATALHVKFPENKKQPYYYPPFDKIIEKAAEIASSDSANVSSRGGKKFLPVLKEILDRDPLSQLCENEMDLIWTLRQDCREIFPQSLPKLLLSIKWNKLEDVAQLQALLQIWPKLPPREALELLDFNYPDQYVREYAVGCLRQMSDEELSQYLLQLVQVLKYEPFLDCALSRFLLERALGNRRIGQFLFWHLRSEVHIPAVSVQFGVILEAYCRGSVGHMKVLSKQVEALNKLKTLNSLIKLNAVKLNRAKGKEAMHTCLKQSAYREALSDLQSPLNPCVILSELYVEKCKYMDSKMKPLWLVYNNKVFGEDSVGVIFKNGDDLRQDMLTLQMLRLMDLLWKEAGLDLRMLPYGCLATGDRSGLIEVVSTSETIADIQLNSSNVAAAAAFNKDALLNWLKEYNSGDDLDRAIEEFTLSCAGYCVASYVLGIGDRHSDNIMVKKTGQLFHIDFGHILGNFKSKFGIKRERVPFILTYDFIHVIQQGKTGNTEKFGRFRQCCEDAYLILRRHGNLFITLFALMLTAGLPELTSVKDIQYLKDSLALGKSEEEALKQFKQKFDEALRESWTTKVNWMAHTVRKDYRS
pEC50: −log10 of the molar value.
experimental_readout: pEC50

compound_string	experimental_readout	result
Cc1nc2c(-c3nnc[nH]3)cc(-c3ccnc(N)c3F)cc2n1-c1ccnc2c(F)ccc(F)c12	pEC50	8.22
Cc1nc2c(-c3nnc[nH]3)cc(-c3ccnc(C#N)c3)cc2n1-c1ccnc2c(F)ccc(F)c12	pEC50	8.30

====

assay: Protein binding in rhesus monkey plasma at 1 mg/kg administered as iv infusion for 30 mins and measured after 24 hrs by ESI-LC/MS/MS analysis; type: ADME, organism-based, Macaca mulatta; details: read-out: PPB (converted)

compound_string	fraction unbound at 24 h
Cc1nc2c(-c3nnc[nH]3)cc(-c3ccnc(N)c3F)cc2n1-c1ccnc2c(F)ccc(F)c12	0.07
Cc1nc2c(-c3nnc[nH]3)cc(-c3ccnc(C#N)c3)cc2n1-c1ccnc2c(F)ccc(F)c12	0.19

====

experiment: Terminal half life in Beagle dog at 1 mg/kg administered as iv infusion for 30 mins and measured after 24 hrs by ESI-LC/MS/MS analysis; type: ADME, organism-based, Canis lupus familiaris; details: in vivo, read-out: beta t1/2 (converted)

compound_string	half-life / h
Cc1nc2c(-c3nnc[nH]3)cc(-c3ccnc(C#N)c3)cc2n1-c1ccnc2c(F)ccc(F)c12	5.5

====

pIC50: −log10 of the molar value.
pIC50, Cytochrome P450 3A4 (Homo sapiens), per-entry values.
experimental_readout: pIC50

compound_string	result
Cc1nc2c(-c3nnc[nH]3)cc(-c3ccncc3)cc2n1-c1ccnc2c(F)ccc(F)c12	6.00
Cc1nc2c(-c3nnc[nH]3)cc(-c3ccnc(C#N)c3)cc2n1-c1ccnc2c(F)ccc(F)c12	4.62
Cc1cc(-c2cc(-c3nnc[nH]3)c3nc(C)n(-c4ccnc5c(F)ccc(F)c45)c3c2)ccn1	4.72

====

molecules and their reported pKa
assay: Dissociation constant, acidic pKa of compound; type: physicochemical

compound_string	result_qualifier	pKa
Cc1nc2c(-c3nnc[nH]3)cc(-c3ccnc(N)c3)cc2n1-c1ccnc2c(F)ccc(F)c12	=	6.1
Cc1nc2c(-c3nnc[nH]3)cc(-c3ccncc3)cc2n1-c1ccnc2c(F)ccc(F)c12	=	5.3
Cc1cc(-c2cc(-c3nnc[nH]3)c3nc(C)n(-c4ccnc5c(F)ccc(F)c45)c3c2)ccn1	=	5.9
Cc1nc2c(-c3nnc[nH]3)cc(-c3ccnc(C#N)c3)cc2n1-c1ccnc2c(F)ccc(F)c12	<	1
Cc1nc2c(-c3nnc[nH]3)cc(-c3ccnc(N)c3F)cc2n1-c1ccnc2c(F)ccc(F)c12	=	4.8

====

molecular target: CYP450 (Homo sapiens, UniProt P04798+P05177+P05181+P08684+P10632+P10635+P11509+P11712+P13584+P20813+P20815+P20853+P24462+P24903+P33260+P33261+P51589+P78329+P98187+Q02928+Q08477+Q16678+Q16696+Q5TCH4+Q6VVX0+Q7Z449+Q8TAV3+Q96SQ9+Q9HB55); assay: Inhibition of human CYP450; format: ADME, protein assay
compounds and their reported IC50

compound_string	IC50
Cc1nc2c(-c3nnc[nH]3)cc(-c3ccnc(C#N)c3)cc2n1-c1ccnc2c(F)ccc(F)c12	> 25 µM
Cc1nc2c(-c3nnc[nH]3)cc(-c3ccnc(N)c3F)cc2n1-c1ccnc2c(F)ccc(F)c12	> 25 µM

====

test: Protein binding in Sprague-Dawley rat plasma at 1 mg/kg administered as iv infusion for 30 mins and measured after 24 hrs by ESI-LC/MS/MS analysis; type: ADME, organism-based; details: read-out: PPB (converted)
compounds and their reported fraction unbound at 24 h
experimental_readout: fraction unbound at 24 h

compound_string	experimental_readout	result
Cc1nc2c(-c3nnc[nH]3)cc(-c3ccnc(C#N)c3)cc2n1-c1ccnc2c(F)ccc(F)c12	fraction unbound at 24 h	0.16
Cc1nc2c(-c3nnc[nH]3)cc(-c3ccnc(N)c3F)cc2n1-c1ccnc2c(F)ccc(F)c12	fraction unbound at 24 h	0.19

====

assay: Volume of distribution at steady state in Sprague-Dawley rat at 1 mg/kg administered as iv infusion for 30 mins and measured after 24 hrs by ESI-LC/MS/MS analysis; format: ADME, organism-based; conditions: in vivo, read-out: Vdss

compound_string	Vd
Cc1nc2c(-c3nnc[nH]3)cc(-c3ccnc(C#N)c3)cc2n1-c1ccnc2c(F)ccc(F)c12	2.5 L/kg

====

assay: Apparent permeability across apical to basolateral side in human Caco2 cells at 10 uM after 1 to 2 hrs by LC/MS/MS analysis; assay type: ADME, cell-based; conditions: Caco-2
experimental_readout: Papp A→B at 10 µM (×10⁻⁶ cm/s)

compound_string	experimental_readout	result
Cc1nc2c(-c3nnc[nH]3)cc(-c3ccnc(C#N)c3)cc2n1-c1ccnc2c(F)ccc(F)c12	Papp A→B at 10 µM	22
Cc1nc2c(-c3nnc[nH]3)cc(-c3ccnc(N)c3)cc2n1-c1ccnc2c(F)ccc(F)c12	Papp A→B at 10 µM	1.7

====

assay: MRT in cynomolgus monkey at 1 mg/kg administered as iv infusion for 30 mins and measured after 24 hrs by ESI-LC/MS/MS analysis; type: ADME, organism-based, Macaca fascicularis; conditions: in vivo

compound_string	MRT, h
Cc1nc2c(-c3nnc[nH]3)cc(-c3ccnc(C#N)c3)cc2n1-c1ccnc2c(F)ccc(F)c12	5.2

====

test: MRT in rhesus monkey at 1 mg/kg administered as iv infusion for 30 mins and measured after 24 hrs by ESI-LC/MS/MS analysis; type: ADME, organism-based, Macaca mulatta; details: in vivo

compound_string	MRT / h
Cc1nc2c(-c3nnc[nH]3)cc(-c3ccnc(C#N)c3)cc2n1-c1ccnc2c(F)ccc(F)c12	5.5

====

test: Apparent permeability across basolateral to apical side in human Caco2 cells at 10 uM after 1 to 2 hrs by LC/MS/MS analysis; type: ADME, cell-based; conditions: Caco-2
molecules and their reported Papp B→A at 10 µM

compound_string	Papp B→A at 10 µM
Cc1nc2c(-c3nnc[nH]3)cc(-c3ccnc(N)c3F)cc2n1-c1ccnc2c(F)ccc(F)c12	31 ×10⁻⁶ cm/s
Cc1nc2c(-c3nnc[nH]3)cc(-c3ccnc(C#N)c3)cc2n1-c1ccnc2c(F)ccc(F)c12	32 ×10⁻⁶ cm/s
Cc1nc2c(-c3nnc[nH]3)cc(-c3ccnc(N)c3)cc2n1-c1ccnc2c(F)ccc(F)c12	18 ×10⁻⁶ cm/s

====

assay: Clearance in Beagle dog at 1 mg/kg administered as iv infusion for 30 mins and measured after 24 hrs by ESI-LC/MS/MS analysis; type: ADME, organism-based, Canis lupus familiaris; details: in vivo

compound_string	unit_string	clearance
Cc1nc2c(-c3nnc[nH]3)cc(-c3ccnc(C#N)c3)cc2n1-c1ccnc2c(F)ccc(F)c12	mL/min/kg	5.67

====

experiment: Terminal half life in cynomolgus monkey at 1 mg/kg administered as iv infusion for 30 mins and measured after 24 hrs by ESI-LC/MS/MS analysis; format: ADME, organism-based, Macaca fascicularis; conditions: in vivo, read-out: beta t1/2 (converted)
experimental_readout: half-life

compound_string	result
Cc1nc2c(-c3nnc[nH]3)cc(-c3ccnc(C#N)c3)cc2n1-c1ccnc2c(F)ccc(F)c12	4.1 h

====

molecules and their reported log10 IC50
molecular target: PI3-kinase p110-alpha/p85-alpha (Homo sapiens, UniProt P42336); test: Inhibition of human full length p110alpha/p85alpha using PIP2 as substrate after 30 mins in presence of ATP at 2xKm concentration by TR-FRET assay
Sequence (P42336 whole entry, one chain of several): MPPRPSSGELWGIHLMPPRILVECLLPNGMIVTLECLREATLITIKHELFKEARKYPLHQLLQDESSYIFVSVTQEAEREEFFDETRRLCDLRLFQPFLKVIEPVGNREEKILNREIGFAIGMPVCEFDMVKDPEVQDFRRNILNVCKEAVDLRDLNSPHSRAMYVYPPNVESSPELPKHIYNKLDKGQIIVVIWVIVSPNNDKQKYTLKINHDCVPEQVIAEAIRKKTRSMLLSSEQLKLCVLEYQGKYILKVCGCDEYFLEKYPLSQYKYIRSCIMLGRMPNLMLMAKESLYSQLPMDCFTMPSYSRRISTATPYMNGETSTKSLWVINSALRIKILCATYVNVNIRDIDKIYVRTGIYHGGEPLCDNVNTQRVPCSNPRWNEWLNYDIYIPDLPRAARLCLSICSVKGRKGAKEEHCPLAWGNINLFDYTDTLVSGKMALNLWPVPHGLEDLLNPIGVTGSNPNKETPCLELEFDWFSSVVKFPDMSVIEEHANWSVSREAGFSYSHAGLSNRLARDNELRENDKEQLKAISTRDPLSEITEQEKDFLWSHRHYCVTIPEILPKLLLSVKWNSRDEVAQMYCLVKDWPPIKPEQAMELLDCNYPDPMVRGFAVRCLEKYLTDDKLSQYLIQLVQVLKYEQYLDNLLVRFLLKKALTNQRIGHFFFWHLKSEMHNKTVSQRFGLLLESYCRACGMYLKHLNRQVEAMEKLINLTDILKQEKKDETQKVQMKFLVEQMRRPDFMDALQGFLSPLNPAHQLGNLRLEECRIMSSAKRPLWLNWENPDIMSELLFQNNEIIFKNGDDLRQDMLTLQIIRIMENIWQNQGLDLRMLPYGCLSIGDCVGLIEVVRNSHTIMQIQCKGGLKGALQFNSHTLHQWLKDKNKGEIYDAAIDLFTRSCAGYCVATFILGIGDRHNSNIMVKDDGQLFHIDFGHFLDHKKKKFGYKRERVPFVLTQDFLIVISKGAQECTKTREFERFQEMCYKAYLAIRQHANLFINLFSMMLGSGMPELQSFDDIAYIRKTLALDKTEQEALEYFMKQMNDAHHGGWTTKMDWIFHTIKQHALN
experimental_readout: log10 IC50 (log10 of the value in nM)

compound_string	log10 IC50
Cc1nc2c(-c3nnc[nH]3)cc(-c3ccnc(N)c3Cl)cc2n1-c1ccnc2c(F)ccc(F)c12	2.95
Clc1cccc2c(-n3cnc4c(-c5nnc[nH]5)cc(N5CCOCC5)cc43)ccnc12	1.78
Cc1nc2c(-c3nnc[nH]3)cc(-c3c(F)cnc(N)c3F)cc2n1-c1ccnc2c(F)ccc(F)c12	3.40
Cc1nc2c(-c3nnc[nH]3)cc(-c3cc(N)ncc3F)cc2n1-c1ccnc2c(F)ccc(F)c12	3.18
Cc1nc2c(-c3nnc[nH]3)cc(-c3ccnc(Cl)c3)cc2n1-c1ccnc2c(F)ccc(F)c12	1.88

====

molecular target: PI3-kinase p110-delta/p85-alpha (Homo sapiens, UniProt O00329); assay: Inhibition of human p110delta catalytic subunit/p85alpha using PIP2 as substrate after 30 mins in presence of ATP at 2xKm concentration by TR-FRET assay
Sequence (P27986 whole entry): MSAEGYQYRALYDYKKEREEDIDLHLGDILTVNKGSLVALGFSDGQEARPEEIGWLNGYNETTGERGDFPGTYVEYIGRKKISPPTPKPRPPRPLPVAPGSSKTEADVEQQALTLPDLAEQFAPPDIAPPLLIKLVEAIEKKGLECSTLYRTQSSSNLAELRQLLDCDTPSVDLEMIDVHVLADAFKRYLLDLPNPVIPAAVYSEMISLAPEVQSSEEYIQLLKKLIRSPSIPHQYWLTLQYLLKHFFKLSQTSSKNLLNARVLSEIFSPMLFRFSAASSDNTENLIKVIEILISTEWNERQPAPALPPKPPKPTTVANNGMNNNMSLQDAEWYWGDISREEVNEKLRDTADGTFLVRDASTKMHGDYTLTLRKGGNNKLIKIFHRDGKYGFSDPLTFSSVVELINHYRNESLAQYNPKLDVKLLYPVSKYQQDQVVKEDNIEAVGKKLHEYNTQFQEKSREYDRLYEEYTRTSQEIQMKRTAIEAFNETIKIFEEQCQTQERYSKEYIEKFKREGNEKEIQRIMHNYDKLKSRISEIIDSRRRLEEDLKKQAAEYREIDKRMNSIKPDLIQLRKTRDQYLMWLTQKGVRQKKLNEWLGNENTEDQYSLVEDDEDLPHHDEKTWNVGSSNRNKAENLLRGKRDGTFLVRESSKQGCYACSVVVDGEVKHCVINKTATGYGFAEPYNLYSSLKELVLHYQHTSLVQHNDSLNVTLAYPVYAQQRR
Sequence (O00329 whole entry): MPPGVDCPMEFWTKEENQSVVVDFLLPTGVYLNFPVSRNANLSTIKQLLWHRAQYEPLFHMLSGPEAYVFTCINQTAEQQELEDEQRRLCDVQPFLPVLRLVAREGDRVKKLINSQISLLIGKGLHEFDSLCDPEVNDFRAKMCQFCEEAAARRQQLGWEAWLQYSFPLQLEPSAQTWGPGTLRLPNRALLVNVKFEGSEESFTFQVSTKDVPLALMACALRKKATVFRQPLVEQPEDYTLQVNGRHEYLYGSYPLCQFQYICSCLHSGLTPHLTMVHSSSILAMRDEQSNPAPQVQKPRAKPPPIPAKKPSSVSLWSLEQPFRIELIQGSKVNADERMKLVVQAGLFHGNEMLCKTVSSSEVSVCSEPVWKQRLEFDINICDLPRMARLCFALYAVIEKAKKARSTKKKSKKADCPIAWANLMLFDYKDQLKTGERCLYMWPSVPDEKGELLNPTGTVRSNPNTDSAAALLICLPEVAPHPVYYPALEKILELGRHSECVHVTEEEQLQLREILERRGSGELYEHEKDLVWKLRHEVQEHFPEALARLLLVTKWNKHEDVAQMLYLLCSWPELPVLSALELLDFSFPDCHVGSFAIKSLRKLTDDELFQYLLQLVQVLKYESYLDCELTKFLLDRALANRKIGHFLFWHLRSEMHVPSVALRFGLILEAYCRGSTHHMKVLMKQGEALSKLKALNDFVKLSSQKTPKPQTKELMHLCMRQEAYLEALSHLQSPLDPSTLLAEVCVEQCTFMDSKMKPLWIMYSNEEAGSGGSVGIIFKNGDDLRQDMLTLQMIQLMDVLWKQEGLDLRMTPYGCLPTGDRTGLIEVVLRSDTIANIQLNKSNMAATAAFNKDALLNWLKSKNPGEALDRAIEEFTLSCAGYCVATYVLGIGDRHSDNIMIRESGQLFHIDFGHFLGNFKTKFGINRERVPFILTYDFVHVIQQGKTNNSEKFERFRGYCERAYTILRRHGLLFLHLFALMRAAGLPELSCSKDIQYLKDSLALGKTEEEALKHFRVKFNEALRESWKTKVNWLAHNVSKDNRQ

molecule	result_qualifier	IC50, µM
Cc1nc2c(-c3nnc[nH]3)cc(-c3ccnc(C(F)F)c3)cc2n1-c1ccnc2c(F)ccc(F)c12	=	0.402
Cc1nc2c(-c3nnc[nH]3)cc(-c3c(F)cnc(N)c3F)cc2n1-c1ccnc2c(F)ccc(F)c12	=	1.66
Cc1nc2c(-c3nnc[nH]3)cc(-c3cc(N)ncc3F)cc2n1-c1ccnc2c(F)ccc(F)c12	=	0.302
Cc1cc(-c2cc(-c3nnc[nH]3)c3nc(C)n(-c4ccnc5c(F)ccc(F)c45)c3c2)ncn1	=	1.14
Cc1cc(-c2cc(-c3nnc[nH]3)c3nc(C)n(-c4ccnc5c(F)ccc(F)c45)c3c2)cc(N)n1	=	2.59
Cc1cc(C(C)Nc2ccccc2)c2nc(N3CCOCC3)cc(=O)n2c1 (centres undefined)	=	0.5
C[C@@H](Nc1cc(F)cc(F)c1)c1cc(C(=O)N(C)C)cc2c(=O)cc(N3CCOCC3)oc12 [AZD-8186]	=	0.036
Clc1cccc2c(-n3cnc4c(-c5ncn[nH]5)cc(-c5ccncc5)cc43)ccnc12	=	0.1
Cc1nc2c(-c3nnc[nH]3)cc(-c3ccnc(N)c3Cl)cc2n1-c1ccnc2c(F)ccc(F)c12	=	0.297
Cc1nc2c(-c3nnc[nH]3)cc(-c3ccnc(Cl)c3)cc2n1-c1ccnc2c(F)ccc(F)c12	=	0.052
Cc1nccc(-c2cc(-c3nnc[nH]3)c3nc(C)n(-c4ccnc5c(F)ccc(F)c45)c3c2)n1	=	0.035
Clc1cccc2c(-n3cnc4c(-c5nnc[nH]5)cc(N5CCOCC5)cc43)ccnc12	=	0.012
Cc1c(-c2cc(-c3nnc[nH]3)c3nc(C)n(-c4ccnc5c(F)ccc(F)c45)c3c2)ccnc1N	>	10
CNc1nccc(-c2cc(-c3nnc[nH]3)c3nc(C)n(-c4ccnc5c(F)ccc(F)c45)c3c2)c1F	>	10
